Molecular target: human MC4R (Homo sapiens, UniProt P32245)
Sequence (P32245 whole entry): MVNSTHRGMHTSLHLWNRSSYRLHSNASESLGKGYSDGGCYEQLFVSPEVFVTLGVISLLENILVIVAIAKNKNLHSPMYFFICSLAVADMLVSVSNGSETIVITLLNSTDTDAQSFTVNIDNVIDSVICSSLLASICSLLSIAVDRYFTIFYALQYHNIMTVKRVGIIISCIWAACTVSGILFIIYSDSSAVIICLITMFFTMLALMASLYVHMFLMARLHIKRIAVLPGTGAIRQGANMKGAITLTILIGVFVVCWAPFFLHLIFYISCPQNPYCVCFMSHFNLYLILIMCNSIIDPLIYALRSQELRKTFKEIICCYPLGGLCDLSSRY
Assay: Intracellular cAMP levels in live cells, MC3R selectivity relative to MC4R
Assay type: cell-based
Details: cAMP assays in human MC3R and human MC4R stable cell lines
Description: The stable cell lines were grown and maintained in selection media consisting of Dulbecco's modified Eagle media (DMEM) with 4.5 g/l D-glucose, and 4 mM L-glutamine (Thermo Fisher Scientific, Waltham, MA), supplemented with 10% fetal bovine serum, 100 units/ml penicillin, 100 μg/ml streptomycin, 2.5 μg/ml amphotericin B, 200 μg/ml hygromycin B (for positive selection of the GScAMP22f luciferase reporter), and Geneticin™ (G418) 700 μg/ml (for MC3R or MC4R selection). […]
Non-standard residues stand in square brackets, D forms with d. Residues, ends and D or L forms follow the SMILES beside them. NMeY = CN[C@@H](Cc1ccc(O)cc1)C(=O)O; Nle = CCCC[C@H](N)C(=O)O
Measured MC3R selectivity (relative to MC4R), listed per entry for reference.
Enter a number only.

CCCC[C@H](NC(=O)[C@@H](NC(=O)[C@@H](N)Cc1ccc(O)cc1)C(C)C)C(=O)NCC(=O)N[C@@H](CCCNC(=N)N)C(=O)N[C@@H](Cc1ccccc1)C(=O)N[C@@H](CCCNC(=N)N)C(=O)N[C@H](Cc1c[nH]c2ccccc12)C(=O)N[C@@H](CC(=O)O)C(=O)N[C@@H](CCCNC(=N)N)C(=O)N[C@@H](Cc1ccccc1)C(=O)NCC(=O)O [CTX-1549] (H-YV[Nle]GRFR[dW]DRFG-OH) | 102

Proceed to the following item.
Reading of MC3R selectivity (relative to MC4R) for CCCC[C@H](NC(=O)[C@@H](NC(=O)[C@H](Cc1ccc(O)cc1)NC)C(C)C)C(=O)N[C@H](C)C(=O)N[C@@H](Cc1c[nH]cn1)C(=O)N[C@@H](Cc1ccccc1)C(=O)N[C@@H](CCCNC(=N)N)C(=O)N[C@H](Cc1c[nH]c2ccccc12)C(=O)N[C@@H](CC(=O)O)C(N)=O [CTX-1141] (H-[NMeY]V[Nle][dA]HFR[dW]D-NH2) with human MC4R (Homo sapiens, UniProt P32245): 55
